The reported measurements were obtained from patent US20110217237A1.

Target: T1, human DLL4, full length, on cells (human, UniProt Q9NR61 27-685)
T1 construct: also called huDLL4 cells; human DLL4-293G
T1 sequence (Q9NR61 27-685 limits assumed): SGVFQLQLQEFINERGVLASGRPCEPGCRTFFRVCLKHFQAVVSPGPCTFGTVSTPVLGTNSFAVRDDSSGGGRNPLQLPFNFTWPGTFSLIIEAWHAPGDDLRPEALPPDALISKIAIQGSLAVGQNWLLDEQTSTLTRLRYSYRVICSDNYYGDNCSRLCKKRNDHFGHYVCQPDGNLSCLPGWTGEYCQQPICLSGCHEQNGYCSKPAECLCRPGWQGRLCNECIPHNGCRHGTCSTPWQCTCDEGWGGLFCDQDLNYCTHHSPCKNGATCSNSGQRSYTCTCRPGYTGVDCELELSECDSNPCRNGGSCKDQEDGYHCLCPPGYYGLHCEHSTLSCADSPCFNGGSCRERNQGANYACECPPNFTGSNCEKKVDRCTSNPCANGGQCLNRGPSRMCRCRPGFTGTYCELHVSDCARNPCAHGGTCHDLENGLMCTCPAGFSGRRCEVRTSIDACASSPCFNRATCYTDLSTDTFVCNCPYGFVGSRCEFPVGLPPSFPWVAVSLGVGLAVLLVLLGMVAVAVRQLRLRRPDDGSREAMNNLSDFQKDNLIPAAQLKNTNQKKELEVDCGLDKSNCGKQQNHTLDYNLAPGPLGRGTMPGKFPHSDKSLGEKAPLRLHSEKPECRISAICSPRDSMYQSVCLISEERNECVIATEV
Assay: FACS, DLL4 cells
Method: Stable cell lines overexpressing cell-surface DLL4 were harvested from tissue culture flasks, washed four times and resuspended in phosphate buffered saline (PBS) containing 1% bovine serum albumin and 1 mM CaCl₂ (FACS buffer). 1.5×10⁵ cells were incubated with antibodies at various concentrations in FACS buffer for 60 minutes on ice. […] Fluorescence was measured using a Becton Dickinson FACSCalibur-HTS (Becton Dickinson, San Jose, Calif., US). […]
Recorded EC50 for the following binders
Reply numerically in nM, unit not repeated.

| binder | EC50, nM |
| --- | --- |
| 38H12 rat anti-DLL4 monoclonal antibody (antibody, rat IgG2a, V domains shown, rat IgG2a/k hybridoma mAb; also called MC10-38H12.2G8; 38H12 rat mAb) VH: EVQLVESGGGLVQPGRSLKLSCAASGFTFSNYGMYWIRQAPTKGLQWVAFISHGGGITYYRDSVKGRFTISRDNAKSTLYLQMDSLRSEDTATYHCAALNWELGIDYWGQGVMVTVSS VL: DIQMTQSPASLSASLGETISIECRASEDIYSNLAWYQKKSGKSPQLLIYAANRLQDGVPSRFSGSGSGTQYSLKISGMQPEDEGDYFCLQGSKFPLTFGSGTKLEIKR | 1.2 |

Quick one: EC50 of 15D6 rat anti-DLL4 monoclonal antibody (antibody, rat IgG2a, V domains shown, rat IgG2a/K hybridoma mAb; also called MC13-15D6.1G7) VH: EVQLQQSGPELAKPGSSVKISCKASGYTFTSSYISWIKQTTGQGLEYIGYINTGSGGTDYNEKFKDKATLTVDKSSRTVFMQLSSLTPGDSAVYYCAKSILLGSTYYLDYWGQGVMVTVSS VL: DTVLTQSPALAVSLGQRVTISCKASRSLSSPMYSYIYWYQQKLGQQPRLLIYRASTLASGVPARFSGSGSGTDFTLNIDPVEADDIATYFCQQSWSDPFTFGSGTKLEIKR ?
15

Quick one: EC50 of 14G1 rat anti-DLL4 monoclonal antibody (antibody, rat IgG2a, V domains shown, rat IgG2a/K hybridoma mAb; also called MC13-14G1.1B4) VH: EVQLQQSGAELAKPGSSVKISCKASGYTFTNYDISWIKQTNGQGLEYLGYINTGSGGIYSNEKFKGKATLTVDKSSNTAFMQLSSLTPEDTAVYYCVREGNNFDHWGQGVKVTVSS VL: DTVMTQSPASMSTSVGERVTVNCKASQSVGTIVAWFQQKPGQSPKRLIYLATYRHTGVPDRFIGSGFGRDFTLTISNVEAEDLAVYYCLQYGSRPFTFGAGTKLEIKR ?
8.6
